Consider the following compounds; for each one, report its EC50.
Experiment: Luminescence Cell-Based Dose Response HTS to Identify Inhibitors of 5'UTR Stem-Loop Driven Prion Protein mRNA Translation in H4 Neuroglioblastoma Cells. [Related pubchem assays: 1827 (Project Summary), 1813 (Primary HTS)]
Type: functional
Activity calls are given as the source filed them. No stated cut-off is given here; in the data, actives have a measured EC50 and inactives only a lower limit.

Query: Which value of EC50 has been reported for "Oc1c2c(nc3c(-c4cccc(Br)c4)cnn13)CCCC2" in the records?
Result: 8.39 µM (active)

Query: For "CCCNC(=O)c1ccc2c(O)c(O)c(-c3ccsc3)nc2c1" , what is its reported EC50?
Result: 10.6 µM (active)

Query: What value of measured EC50 is listed for "NC1=NC2=C(CCCC2)C2(CCCCC2)S1" ?
Result: 34.5 µM (active)
